Recorded growth values for a group of compounds are listed next.
Test system: RPMI-8226 leukemia
Assay name: NCI-60 one-dose screen, 48 h (100 = growth as untreated, 0 = no growth, -100 = all killed)
Conditions: 10 µM
The panel holds about 83,000 compounds, 20% with a hit somewhere; the sample as a whole holds those more often.
Express it in %; write the number only.

Solved cases (10 shown):
Compound	Assay target	Units	growth
Nc1ccc(Sc2ccc3c4c2cccc4c(=O)n2c4ccccc4nc32)cc1	RPMI-8226 leukemia	%	50.2
COc1cc(CSc2nc3ccc(Cl)cc3c(=O)n2Cc2ccccc2)cc(OC)c1OC	RPMI-8226 leukemia	%	68.7
CC(C)=C1CCC(C)C/C1=N\N=C(N)N (configuration not stated)	RPMI-8226 leukemia	%	96.7
COc1ccccc1Cn1cc2c(c1-c1ccccc1)CCc1cnoc1-2	RPMI-8226 leukemia	%	38.8
COc1ccc(-c2oncc2-c2cc(OC)c3c(c2)OCO3)cc1	RPMI-8226 leukemia	%	23.8
CCOc1nc(-c2ccccc2)cc2c(O)c(C(=O)N/N=C/c3ccc(OC)cc3)[nH]c(=O)c12	RPMI-8226 leukemia	%	82.2
NC(=O)C12C(=O)NC(=O)C1(C(=O)O)C21CCCC1 (configuration not stated)	RPMI-8226 leukemia	%	94.6
COc1cccc(C2(C)Nc3ccccc3-c3nc4ccccc4n32)c1 (configuration not stated)	RPMI-8226 leukemia	%	96.4
Cc1ccc2c3c(cccc13)-c1ccccc1C2=O	RPMI-8226 leukemia	%	97.8
COc1ccc(-c2cc(/C=C/C(=O)c3ccc(N)cc3)[nH]n2)cc1OC	RPMI-8226 leukemia	%	-12.6

Would you kindly share the measured growth for CCCCCN(CCCCC)C(C)C(O)c1ccc2cc(Cl)c3ccccc3c2c1 (configuration not stated) ?
84.1

Look at this compound and give its reported growth. C=CCOc1ccc2c(c1)CC=C1[C@@H]2CC[C@]2(C)C(=O)/C(=N/O)C[C@@H]12
40.6

Which value of growth has been reported for O=[N+]([O-])c1ccc2c(c1)Cc1cc(I)ccc1-2 in the records?
98.4

Tell me the measured growth of COc1cc(CSc2nc3ccc(C)cc3c(=O)n2Cc2ccccc2)cc(OC)c1OC , please.
54.1

Name the reported growth value associated with the compound N=C(N)c1ccc(-c2ccc(-c3ccccc3)s2)s1
-44.3

Dear colleague, I am looking for the recorded growth of the following compound: CCCCCC(CCC)COC(=O)c1ccc(OC)cc1 (configuration not stated)
91.8
